B1: HDV Ribozyme (parent)
chain: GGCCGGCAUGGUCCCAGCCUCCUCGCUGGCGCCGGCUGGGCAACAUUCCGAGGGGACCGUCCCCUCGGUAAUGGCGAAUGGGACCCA

- Variants of: B1
- methodSummary: self-cleavage, relative activity (ratio to wild type); higher = more cleavage; co-transcriptional
measureName: self-cleavage
# print the numeric value only

So for U27G A78G , the logged self-cleavage turned out to be 0.532

So for A8U G54A , the logged self-cleavage turned out to be 0.831

So for U9C G80A , the logged self-cleavage turned out to be 0.277

So for U12A C13G , the logged self-cleavage turned out to be 0

So for U12G C18G , the logged self-cleavage turned out to be 0

So for G1C C33U , the logged self-cleavage turned out to be 0

So for G25A A70G , the logged self-cleavage turned out to be 0.0791

So for G5A A45U , the logged self-cleavage turned out to be 0

So for G25A G76U , the logged self-cleavage turned out to be 0.3

So for G35A C66A , the logged self-cleavage turned out to be 0.415

So for U37A A77C , the logged self-cleavage turned out to be 0.0426

Cited source for all entries: the RNAGym collection of RNA variant scans (doi:10.7554/elife.80360)
